tested on: DFTD cell line T3 (06/0368); assay: cell viability, percent of DMSO control (CellTiter-Glo); higher = more viable cells; conditions: 0.0185 µM; 72 h
For each entry below, report its cell viability value.
Record the value in %, omitting the unit from your answer.

Query: Provide measured cell viability value, entry: "Cn1nc(-c2ccccn2)nc2c(=O)n(C)c(=O)nc1-2"
Reply: 94.9

Query: Provide measured cell viability value, entry: "COc1cc2ncnc(Nc3ccc(F)c(Cl)c3)c2cc1NC(=O)/C=C/CN1CCCCC1"
Reply: 97.5

Query: Provide measured cell viability value, entry: "CC#CC(=O)Nc1ccc2ncnc(Nc3cccc(Br)c3)c2c1"
Reply: 105

Query: Provide measured cell viability value, entry: "CN(C)C/C=C/C(=O)Nc1cc2c(Nc3ccc(F)c(Cl)c3)ncnc2cc1O[C@H]1CCOC1"
Reply: 84.4

Query: Provide measured cell viability value, entry: "Cc1cc(Nc2ncnc3ccc(NC4=NC(C)(C)CO4)cc23)ccc1Oc1ccn2ncnc2c1"
Reply: 116

Query: Provide measured cell viability value, entry: "CCN1CCN(Cc2ccc(-c3cc4c(N[C@H](C)c5ccccc5)ncnc4[nH]3)cc2)CC1"
Reply: 110

Query: Provide measured cell viability value, entry: CS(=O)(=O)CCNCc1ccc(-c2ccc3ncnc(Nc4ccc(OCc5cccc(F)c5)c(Cl)c4)c3c2)o1.Cc1ccc(S(=O)(=O)O)cc1.Cc1ccc(S(=O)(=O)O)cc1.O [Lapatinib ditosylate monohydrate]
Reply: 94.6

----------
test system: DFTD cell line T4 (07/0192); assay: cell viability, percent of DMSO control (CellTiter-Glo); higher = more viable cells; conditions: 13.5 µM; 72 h
For each entry below, report its cell viability value.
Record the value in %, omitting the unit from your answer.

Query: # assay system DFTD cell line T4 (07/0192): give cell viability of COc1cccc2c1C(=O)c1c(O)c3c(c(O)c1C2=O)C[C@@](O)(C(=O)CO)C[C@@H]3O[C@H]1C[C@H](N)[C@H](O)[C@H](C)O1 [Doxorubicin]
Reply: -5.47

Query: # assay system DFTD cell line T4 (07/0192): give cell viability of CC1(C)CC(=O)C2=C(C1)NC(=S)NC2c1cccc(O)c1 (stereo not drawn) [Dimethylenastron]
Reply: 61.7

Query: # assay system DFTD cell line T4 (07/0192): give cell viability of CCN1CCN(Cc2ccc(-c3cc4c(N[C@H](C)c5ccccc5)ncnc4[nH]3)cc2)CC1 [AEE788]
Reply: 23.4

Query: # assay system DFTD cell line T4 (07/0192): give cell viability of COc1cc2ncnc(Nc3ccc(O)c(Br)c3)c2cc1OC [WHI-P154]
Reply: 19.7

Query: # assay system DFTD cell line T4 (07/0192): give cell viability of COc1cc2ncnc(Nc3cccc(Cl)c3F)c2cc1OC(=O)N1CCN(C)C[C@H]1C [AZD3759]
Reply: 25

Query: # assay system DFTD cell line T4 (07/0192): give cell viability of CCOc1cc2ncc(C#N)c(Nc3ccc(F)c(Cl)c3)c2cc1NC(=O)/C=C/CN(C)C [Pelitinib (EKB-569)]
Reply: 22.1

Query: # assay system DFTD cell line T4 (07/0192): give cell viability of "COc1cc2ncnc(Nc3ccc(Cl)cc3F)c2cc1OC"
Reply: 35.2

Query: # assay system DFTD cell line T4 (07/0192): give cell viability of CCOc1cc2ncc(C#N)c(Nc3ccc(OCc4ccccn4)c(Cl)c3)c2cc1NC(=O)/C=C/CN(C)C [Neratinib(HKI-272)]
Reply: 18.8

----------
test system: DFTD cell line T3 (06/0368); assay: cell viability, percent of DMSO control (CellTiter-Glo); higher = more viable cells; settings: 0.5 µM; 72 h
Rule: cell viability below 90% gives yes. Equal to or above 90% gives no.

Query: cell viability strictly < 90% for this compound? "Cn1nc(-c2ccccn2)nc2c(=O)n(C)c(=O)nc1-2"
Reply: no

Query: cell viability strictly < 90% for this compound? CC1(C)CC(=O)C2=C(C1)NC(=S)NC2c1cccc(O)c1 (stereo not drawn) [Dimethylenastron]
Reply: no

Query: cell viability strictly < 90% for this compound? CS(=O)(=O)CCNCc1ccc(-c2ccc3ncnc(Nc4ccc(OCc5cccc(F)c5)c(Cl)c4)c3c2)o1.Cc1ccc(S(=O)(=O)O)cc1.Cc1ccc(S(=O)(=O)O)cc1.O [Lapatinib ditosylate monohydrate]
Reply: yes

Query: cell viability strictly < 90% for this compound? "CC#CC(=O)Nc1ccc2ncnc(Nc3cccc(Br)c3)c2c1"
Reply: yes

Query: cell viability strictly < 90% for this compound? "COc1cccc2c1C(=O)c1c(O)c3c(c(O)c1C2=O)C[C@@](O)(C(=O)CO)C[C@@H]3O[C@H]1C[C@H](N)[C@@H](O)[C@H](C)O1.Cl"
Reply: yes

----------
system: DFTD cell line T3 (06/0368); test: cell viability, percent of DMSO control (CellTiter-Glo); higher = more viable cells; settings: 0.166667 µM; 72 h
Attribute Measured: cell viability (%)
Record the value in %, omitting the unit from your answer.

Query: Provide measured cell viability value, entry: CC(C)(C)P(=NC(=S)NCCCO)(N1CCCCCC1)N1CCCCCC1 [T0503-0280]
Reply: 118

Query: Provide measured cell viability value, entry: C=CC(=O)Nc1cc2c(Nc3ccc(F)c(Cl)c3)ncnc2cc1OCCCN1CCOCC1 [Canertinib (CI-1033)]
Reply: 110

Query: Provide measured cell viability value, entry: CS(=O)(=O)CCNCc1ccc(-c2ccc3ncnc(Nc4ccc(OCc5cccc(F)c5)c(Cl)c4)c3c2)o1.Cc1ccc(S(=O)(=O)O)cc1.Cc1ccc(S(=O)(=O)O)cc1.O [Lapatinib ditosylate monohydrate]
Reply: 85.4

Query: Provide measured cell viability value, entry: "CC#CC(=O)Nc1ccc2ncnc(Nc3cccc(Br)c3)c2c1"
Reply: 76.6

Query: Provide measured cell viability value, entry: COCCn1c2c([n+](Cc3cnccn3)c1C)C(=O)c1ccccc1C2=O.[Br-] [YM155]
Reply: 89.3

Query: Provide measured cell viability value, entry: CCOc1cc2ncc(C#N)c(Nc3ccc(OCc4ccccn4)c(Cl)c3)c2cc1NC(=O)/C=C/CN(C)C [Neratinib(HKI-272)]
Reply: 96.1

Query: Provide measured cell viability value, entry: COc1cc2ncnc(Nc3ccc(O)c(Br)c3)c2cc1OC [WHI-P154]
Reply: 92

Query: Provide measured cell viability value, entry: Cc1cc(Nc2ncnc3ccc(NC4=NC(C)(C)CO4)cc23)ccc1Oc1ccn2ncnc2c1 [Irbinitinib(ARRY-380; ONT-380)]
Reply: 98.9

Query: Provide measured cell viability value, entry: CCOc1cc2ncc(C#N)c(Nc3ccc(F)c(Cl)c3)c2cc1NC(=O)/C=C/CN(C)C [Pelitinib (EKB-569)]
Reply: 76.4

Query: Provide measured cell viability value, entry: C=CC(=O)Nc1cc(Nc2ncc(Cl)c(-c3c[nH]c4ccccc34)n2)c(OC)cc1N(C)CCN(C)C [Mutant EGFR inhibitor]
Reply: 39.6

Query: Provide measured cell viability value, entry: "COc1cc2ncnc(Nc3cccc(Br)c3)c2cc1OC.Cl"
Reply: 108

Query: Provide measured cell viability value, entry: "Cn1nc(-c2ccccn2)nc2c(=O)n(C)c(=O)nc1-2"
Reply: 126

Query: Provide measured cell viability value, entry: "COc1cccc2c1C(=O)c1c(O)c3c(c(O)c1C2=O)C[C@@](O)(C(=O)CO)C[C@@H]3O[C@H]1C[C@H](N)[C@@H](O)[C@H](C)O1.Cl"
Reply: 81.9

Query: Provide measured cell viability value, entry: COc1cc2ncnc(Nc3cccc(Cl)c3F)c2cc1OC(=O)N1CCN(C)C[C@H]1C [AZD3759]
Reply: 107

Query: Provide measured cell viability value, entry: "COc1cccc2c1C(=O)c1c(O)c3c(c(O)c1C2=O)C[C@@](O)(C(=O)CO)C[C@@H]3O[C@H]1C[C@H](N)[C@H](O)[C@H](C)O1.Cl"
Reply: 95.8

----------
For each entry below, report its cell viability value.
tested on: DFTD cell line T3 (06/0368); test: cell viability, percent of DMSO control (CellTiter-Glo); higher = more viable cells; details: 4.5 µM; 72 h
# output: numeric value plus its unit

Query: # assay system DFTD cell line T3 (06/0368): give cell viability of "COc1cc2ncnc(Nc3ccc(O)c(Br)c3)c2cc1OC"
Reply: 40.4%

Query: # assay system DFTD cell line T3 (06/0368): give cell viability of "COCCn1c2c([n+](Cc3cnccn3)c1C)C(=O)c1ccccc1C2=O.[Br-]"
Reply: 4.15%

Query: # assay system DFTD cell line T3 (06/0368): give cell viability of "Cn1cnc2c(F)c(Nc3ccc(Br)cc3Cl)c(C(=O)NOCCO)cc21.O=S(=O)(O)O"
Reply: 42.5%

Query: # assay system DFTD cell line T3 (06/0368): give cell viability of "COc1cc2ncnc(Nc3cccc(Br)c3)c2cc1OC.Cl"
Reply: 39.8%

Query: # assay system DFTD cell line T3 (06/0368): give cell viability of CS(=O)(=O)CCNCc1ccc(-c2ccc3ncnc(Nc4ccc(OCc5cccc(F)c5)c(Cl)c4)c3c2)o1.Cc1ccc(S(=O)(=O)O)cc1.Cc1ccc(S(=O)(=O)O)cc1.O [Lapatinib ditosylate monohydrate]
Reply: 48.1%

Query: # assay system DFTD cell line T3 (06/0368): give cell viability of "CC#CC(=O)Nc1ccc2ncnc(Nc3cccc(Br)c3)c2c1"
Reply: 28.4%

Query: # assay system DFTD cell line T3 (06/0368): give cell viability of CC1(C)CC(=O)C2=C(C1)NC(=S)NC2c1cccc(O)c1 (stereo not drawn)
Reply: 103%

Query: # assay system DFTD cell line T3 (06/0368): give cell viability of "C=CC(=O)Nc1cc(Nc2ncc(Cl)c(-c3c[nH]c4ccccc34)n2)c(OC)cc1N(C)CCN(C)C"
Reply: 12.8%
